experimental-endpoint: melting point

Please review the entries below; each comes with its answer.
- compound: "Cc1cn2cc(-c3cc4c(F)cc(N5CCN(C)CC5)cc4oc3=O)nc2cn1 [Compound 592]"
  experimental-endpoint: "melting point"
  readout-value: "283 to 284 °C"
- compound: "CN(CCO)Cc1ccc2cc(-c3nc4c(Cl)cccc4s3)c(=O)oc2c1 [Compound 271]"
  experimental-endpoint: "melting point"
  readout-value: "193 to 196 °C"
- compound: "O=c1oc2cc(N3CCCNCC3)cc(F)c2cc1-c1nc2ccccc2[nH]1 [Compound 374]"
  experimental-endpoint: "melting point"
  readout-value: "236 to 242 °C"
- compound: "Cn1cc(-c2cc3ccc(N4CCNCC4)cc3oc2=O)c2ccccc21 [Compound 258]"
  experimental-endpoint: "melting point"
  readout-value: "201 to 203 °C"
- compound: "Cc1ccc2cc(-c3cc4ccc(N5CCNCC5)cc4oc3=O)cn2n1 [Cpd 641]"
  experimental-endpoint: "melting point"
  readout-value: "213 to 216 °C"
- compound: "Cc1cc(F)c2nc(-c3cc4ccc(N5C[C@@H](C)N[C@@H](C)C5)cc4oc3=O)cn2c1 [Compound 354]"
  experimental-endpoint: "melting point"
  readout-value: "268 to 275 °C"
- compound: "O=c1oc2cc(N3CCNCC3)ccc2cc1Nc1ccccc1 [Compound 75]"
  experimental-endpoint: "melting point"
  readout-value: "140 to 143 °C"
- compound: "Cc1cn2cc(-c3cc4ccc(N5CC[C@H](N(C)C)C5)cc4oc3=O)cc2c(C)n1 [Compound 697]"
  experimental-endpoint: "melting point"
  readout-value: "195 to 198 °C"
- compound: "Cc1cn2cc(-c3cc4ccc(OCCN5CCC(O)CC5)cc4oc3=O)nc2c(C)n1 [Compound 957]"
  experimental-endpoint: "melting point"
  readout-value: "187 to 190 °C"
- compound: "CCc1cn2cc(-c3cc4ccc(N5C[C@@H](C)N[C@@H](C)C5)cc4oc3=O)nc2s1 [Cpd 429]"
  experimental-endpoint: "melting point"
  readout-value: "251 to 253 °C"

Task: Given the compound COc1cccc(-c2cc3c(F)cc(N4CCN[C@@H](C)C4)cc3oc2=O)n1 [Compound 469] , what is its reported melting point?
Output: 199 to 201 °C

Task: Fill in: melting point of O=c1oc2cc(N3CCNCC3)ccc2cc1-c1cn2cc(F)cc(F)c2n1 [Compound 532] is ___
Output: 276 to 286 °C

Task: Value lookup for melting point; key = COc1ccc(-c2cc3ccc(N4CCNCC4)cc3oc2=O)cc1C [Compound 541]
Output: 171 to 173 °C

Task: Give its melting point value. Item: CN1CCN(c2ccc3cc(-c4cn5cc(Cl)sc5n4)c(=O)oc3c2)CC1 [Compound 478]
Output: 268 to 270 °C

Task: Endpoint output: melting point of CCN1C[C@@H]2C[C@H]1CN2c1ccc2cc(-c3cn4cc(Cl)nc(C)c4n3)c(=O)oc2c1 [Compound 791] . Value?
Output: 135 to 138 °C

Task: So what does the record say about melting point for Cc1ccn2cc(-c3cc4ccc(N5CCCNCC5)cc4oc3=O)nc2c1 [Compound 216] ?
Output: 236 °C

Task: # get_value(readout='melting point', item= O=C(O)C(F)(F)F.O=c1oc2cc(N3CCNCC3)ccc2cc1-c1nc(C(F)(F)F)cs1 [Compound 52] )
Output: 221 to 229 °C
